Consider the following compounds; for each one, report its Tryptase At 100 μM %.
tested on: Tryptase, from human lung; experiment: Enzymatic assay, tryptase; conditions: at 100 μM
Where a SMILES comes first, the peptide text is derived from it.
Quote the value and follow it with the unit of measurement.

State Tryptase At 100 μM % (Tryptase, from human lung) of CCCC[C@@H]1NC(=O)[C@@H]2CCCN2C(=O)[C@H]2CCCN2C(=O)[C@H](Cc2ccc(O)cc2)NC(=O)[C@@H]2CSSC[C@H](NC1=O)C(=O)N[C@@H]([C@@H](C)O)C(=O)N[C@@H](C)C(=O)N[C@@H](CO)C(=O)N[C@@H]([C@@H](C)CC)C(=O)N1CCC[C@H]1C(=O)N1CC(NC(=O)c3ccccc3)C[C@H]1C(=O)N[C@@H](CCC(N)=O)C(=O)N2 (single isomer, unassigned) [Ex. 138] .
0%

State Tryptase At 100 μM % (Tryptase, from human lung) of CCCC[C@@H]1NC(=O)[C@@H]2CCCN2C(=O)[C@H]2CCCN2C(=O)[C@H](Cc2ccccc2Cl)NC(=O)[C@@H]2CSSC[C@H](NC1=O)C(=O)N[C@@H]([C@@H](C)O)C(=O)N[C@@H](C)C(=O)N[C@@H](CO)C(=O)N[C@@H]([C@@H](C)CC)C(=O)N1CCC[C@H]1C(=O)N1CCC[C@H]1C(=O)N[C@@H](CCC(N)=O)C(=O)N2 [Ex. 144] (HELM PEPTIDE1{[Nle].C.T.A.S.I.P.P.Q.C.[O=C([C@H](Cc1ccccc1Cl)N[*:1])[*:2]].[dP].P}$PEPTIDE1,PEPTIDE1,2:R3-10:R3|PEPTIDE1,PEPTIDE1,1:R1-13:R2$$$V2.0) .
0%
